System: CHO
protocol.description: % viability of CHO cells (MTT); higher = less toxic
condition.summary: 2 µM; 48 h
Each entry below carries its recorded % viability of CHO cells.
State the value, then name its unit.

I have this molecule here, C[C@@]1(O)[C@H](O)[C@@H](CO)O[C@H]1n1ccc2c(N)ncnc21 , and I need its recorded % viability of CHO cells.
127%

Sample CCN1CCN(Cc2nc3ccc([N+](=O)[O-])cc3c(=O)n2-c2ccccc2F)CC1 — what was its % viability of CHO cells?
105%

Sample C[C@H]1CC[C@]2(NC1)O[C@H]1C[C@H]3[C@@H]4CC[C@H]5C[C@@H](O)CC[C@]5(C)[C@H]4CC[C@]3(C)[C@H]1[C@@H]2C — what was its % viability of CHO cells?
105%

Give its % viability of CHO cells value. Item: C[N+]1(C)CCCC(OC(=O)C(O)(c2ccccc2)c2ccccc2)C1 (stereo not given)
122%

Which % viability of CHO cells value is on record for CN1C(=O)C(c2ccccc2)C(=O)N(c2ccccc2)c2cc(C(F)(F)F)ccc21 (stereo not given) ?
95.2%
